Reference for the values: PubChem BioAssay (NCI)

Please provide measured TGI for the entries that follow.
# System: OVCAR-3 ovarian
# ASSAY_METHOD_TEXT: NCI tumour cell line growth inhibition, 48 h

Query: Reported TGI for Cc1ccc(N=Cc2ccc3c(c2)OCO3)cc1C : what is it?
Result: > 100 µM

Query: Would you kindly repeat that for CCCCCCCCCCCCCCCCN1CC2CCCCC2C1 (stereo unspecified) ?
Result: 34.1 µM

Query: Would you kindly repeat that for CN(C)CCCNC(CC#N)CCC#N (stereo unspecified) ?
Result: > 10 µM

Query: Would you kindly repeat that for O=C1[C@H]2ON(c3ccccc3)C(c3ccccc3Cl)[C@H]2C(=O)N1c1ccc(Cc2ccc(N3C(=O)[C@@H]4ON(c5ccccc5)C(c5ccccc5Cl)[C@@H]4C3=O)cc2)cc1 (stereo partly specified) ?
Result: > 100 µM

Query: Would you kindly repeat that for CCOC(=O)COc1ccccc1/C=C1\CCC(CN(C)C)C1=O (stereo unspecified) ?
Result: 20.6 µM

Query: Would you kindly repeat that for CC1(C)CC(=O)c2c(C(F)(F)F)nn(-c3ccc(C(N)=O)c(NC4CCC(OC(=O)CN)CC4)c3)c2C1 (stereo unspecified) ?
Result: > 100 µM

###

# System: NCI-H23 lung
# ASSAY_METHOD_TEXT: NCI tumour cell line growth inhibition, 48 h; in the data active = GI50 below about 0.43 µM; inactive = the rest
Entry note: the call must match one of 1 for active, -1 for inactive

Query: Could you please tell me the result logged for O=C(NCCO)Nc1ccc(-c2nc(N3CCOCC3)c3cccn3n2)cc1 in this assay?
Result: 1

Query: Would you kindly repeat that for C=CCC[CH2][Sn]([c]1ccccc1)([c]1ccccc1)[c]1ccccc1 ?
Result: -1

Query: Would you kindly repeat that for COC(C(=O)[O][Ge]([CH3])([CH3])[CH3])c1ccccc1 (stereo not drawn) ?
Result: -1

###

# Test system: HS 578T breast
# ASSAY_METHOD_TEXT: NCI tumour cell line growth inhibition, 48 h; in the data active = GI50 below about 0.43 µM; inactive = the rest
Entry note: the call must match one of active, inactive

Query: Could you please tell me the result logged for COc1ccc(-c2c3c(N)nc(-c4ccncc4)nc3nc3c2c(C)nn3-c2ccccc2)cc1 in this assay?
Result: inactive

Query: Would you kindly repeat that for Oc1cccc2ccc(N/N=C/c3cc(CN4CCCCC4)c(O)c4ncccc34)nc12 ?
Result: active

Query: Would you kindly repeat that for CCc1nccc2c1nc(-c1nonc1N)n2CC ?
Result: inactive

Query: Would you kindly repeat that for CN1CCC(n2cnc(-c3ccc(F)cc3)c2-c2ccnc(NCCO)n2)CC1 ?
Result: inactive

Query: Would you kindly repeat that for OC(c1cc(-c2ccccc2)nc2ccc(Cl)cc12)C1CCCCN1 (configuration not stated) ?
Result: inactive

Query: Would you kindly repeat that for CCOC(=O)c1cc(NS(=O)(=O)c2ccccc2)cc(C(=O)OCC)c1 ?
Result: inactive

Query: Would you kindly repeat that for COc1ccc2nc(-c3ccc(-c4noc(-c5cc(OC)c(OC)c(OC)c5)n4)cc3)[nH]c2c1 ?
Result: inactive

Query: Would you kindly repeat that for COc1cccc2c1c(C(=O)C(=O)Nc1cc(C)no1)cn2Cc1ccc(F)cc1 ?
Result: inactive

Query: Would you kindly repeat that for COc1ccc(/C(=C2/O[C@@H]([C@H]3COC(C)(C)O3)[C@H]3OC(C)(C)O[C@@H]23)c2cc(OC)c(OC)c(OC)c2)cc1O ?
Result: inactive

Query: Would you kindly repeat that for CN(C)CCNc1c2c(c(NCCN(C)C)c3[nH]ccc13)C(=O)c1ccccc1C2=O ?
Result: inactive

Query: Would you kindly repeat that for CC(C)c1cc(-c2n[nH]c(=O)n2-c2ccc3c(ccn3C)c2)c(O)cc1O ?
Result: inactive

Query: Would you kindly repeat that for Nc1nc2c(c3ncncc13)C(c1cccc(C(F)(F)F)c1)Cc1ncncc1-2 (configuration not stated) ?
Result: inactive

###

# Test system: U251 CNS
Please provide measured GI50 for the entries that follow.

Query: Reported GI50 for O=C(NCCO)Nc1ccc(-c2nc(N3CCOCC3)c3cccn3n2)cc1 : what is it?
Result: 1.01 µM

Query: Would you kindly repeat that for CC[C@@H](C(=O)O)C1CC[C@H](C)C([C@@H](C)[C@H](O)[C@H](C)C(=O)[C@H](CC)C2O[C@]3(C=C[C@@H](O)[C@]4(CC[C@@](C)(C5CC[C@](O)(CC)[C@H](C)O5)O4)O3)[C@H](C)C[C@@H]2C)O1 (some centres undefined) ?
Result: 0.115 µM

Query: Would you kindly repeat that for CC#C[C@]1(O)CC[C@H]2[C@@H]3CCC4=CC(=O)CCC4=C3[C@@H](c3ccc4c(c3)OCO4)C[C@@]21C ?
Result: 108 µM

Query: Would you kindly repeat that for CN1CCC(n2cnc(-c3ccc(F)cc3)c2-c2ccnc(NCCO)n2)CC1 ?
Result: 12.7 µM

Query: Would you kindly repeat that for COc1cc2c(c(OC)c1)C1c3ccccc3NC(=O)N1CC2 (centres undefined) ?
Result: 4.38 µM

Query: Would you kindly repeat that for Oc1cccc2ccc(N/N=C/c3cc(CN4CCCCC4)c(O)c4ncccc34)nc12 ?
Result: 0.0329 µM

Query: Would you kindly repeat that for CC(C)c1cc(-c2n[nH]c(=O)n2-c2ccc3c(ccn3C)c2)c(O)cc1O ?
Result: < 0.0257 µM

Query: Would you kindly repeat that for COc1ccc(/C(=C2/O[C@@H]([C@H]3COC(C)(C)O3)[C@H]3OC(C)(C)O[C@@H]23)c2cc(OC)c(OC)c(OC)c2)cc1O ?
Result: 5 µM

Query: Would you kindly repeat that for COc1ccc(-c2csc(N(C(=O)N3CCN(c4cc5c(cc4F)c(=O)c(C(=O)O)cn5C4CC4)CC3)c3ccccc3)n2)cc1 ?
Result: 0.973 µM

###

# Test system: NCI/ADR-RES ovarian
# ASSAY_METHOD_TEXT: NCI tumour cell line growth inhibition, 48 h; in the data active = GI50 below about 0.43 µM; inactive = the rest
Entry note: the call must match one of active, inactive

Query: Could you please tell me the result logged for COc1ccc(-c2c3c(N)nc(-c4ccncc4)nc3nc3c2c(C)nn3-c2ccccc2)cc1 in this assay?
Result: inactive

Query: Would you kindly repeat that for CCCCCCCCCCCCCCCCN1CC2CCCCC2C1 (stereo not given) ?
Result: inactive

Query: Would you kindly repeat that for Oc1cccc2ccc(N/N=C/c3cc(CN4CCCCC4)c(O)c4ncccc34)nc12 ?
Result: active

Query: Would you kindly repeat that for Nc1ccccc1C#C/C=C\C#Cc1cccs1 ?
Result: inactive

Query: Would you kindly repeat that for COc1ccc(OC)c(/C=C2\SC(=S)NC2=O)c1 ?
Result: inactive

Query: Would you kindly repeat that for COc1ccc(/C(=C2/O[C@@H]([C@H]3COC(C)(C)O3)[C@H]3OC(C)(C)O[C@@H]23)c2cc(OC)c(OC)c(OC)c2)cc1O ?
Result: inactive

Query: Would you kindly repeat that for O=C1c2cccnc2C(=O)c2nc3cc(N4CCN(C5CC5)CC4)ccc3nc21 ?
Result: inactive

Query: Would you kindly repeat that for O=c1cc(-c2ccccc2)[nH]c2ccccc12 ?
Result: inactive

Query: Would you kindly repeat that for CN(C)CCNc1c2c(c(NCCN(C)C)c3[nH]ccc13)C(=O)c1ccccc1C2=O ?
Result: inactive

Query: Would you kindly repeat that for NCCOCCOCCNc1nc(Cc2ccccc2)nc(NCCCN2CCCC2=O)n1 ?
Result: inactive

###

Please provide measured TGI for the entries that follow.
# System: NCI-H460 lung
# ASSAY_METHOD_TEXT: NCI tumour cell line growth inhibition, 48 h

Query: Any idea what TGI came out for COc1ccc2nc(-n3c(/C=C/c4ccccc4O)nc4ccccc4c3=O)sc2c1 on NCI-H460 lung?
Result: > 100 µM

Query: Would you kindly repeat that for CC1=C(Oc2ccccc2)C(CCC(=O)O)c2c(O)cc(Cl)c(O)c21 (stereo unspecified) ?
Result: > 100 µM

Query: Would you kindly repeat that for ONc1ncnc2nc[nH]c12 ?
Result: > 100 µM

Query: Would you kindly repeat that for O=C1c2ccccc2S(=O)(=O)c2c1cccc2[N+](=O)[O-] ?
Result: > 10 µM

Query: Would you kindly repeat that for C[C@H](OCc1ccccc1)C(=O)N1CCS(=O)(=O)N2CCC[C@H]2C1=O ?
Result: > 100 µM

Query: Would you kindly repeat that for CCCc1[nH]c(SCCCCCCCCSc2nc(-c3ccc(F)cc3)c(CCC)[nH]2)nc1-c1ccc(F)cc1 ?
Result: > 100 µM

###

# System: UO-31 renal
# ASSAY_METHOD_TEXT: NCI tumour cell line growth inhibition, 48 h
ASSAY_READOUT: TGI

Query: Reported TGI for COc1ccc(OC)c(NC(=O)C2=C(C)NC(C)=C(C(=O)Nc3cc(OC)ccc3OC)C2c2ccccc2)c1 : what is it?
Result: > 100 µM

Query: Would you kindly repeat that for COc1cc(Cn2c3ccccc3c3cc(C)c4c(c32)C=CC(C)(CCC=C(C)C)O4)cc2c1[nH]c1ccccc12 (configuration not stated) ?
Result: > 100 µM

Query: Would you kindly repeat that for Nc1ncnc2ccc(Sc3ccc4ncnc(N)c4c3)cc12 ?
Result: > 100 µM

Query: Would you kindly repeat that for CC1=C(C)C(=O)c2c(cc3ccccn23)C1=O ?
Result: 65.1 µM

Query: Would you kindly repeat that for COc1cc2c(c(OC)c1)C1c3ccccc3NC(=O)N1CC2 (configuration not stated) ?
Result: 85.4 µM

Query: Would you kindly repeat that for Cc1cc(N(CCCl)CCCl)ccc1C=Nc1ccc(-c2csc(Cc3ccccc3)n2)cc1 ?
Result: 26.8 µM

Query: Would you kindly repeat that for COc1ccc(OC)c(/C=C2\SC(=S)NC2=O)c1 ?
Result: > 100 µM

Query: Would you kindly repeat that for O=C(N/N=C(/c1ccccc1)C(F)(F)F)c1ccncc1 ?
Result: > 100 µM

Query: Would you kindly repeat that for CN(CC1(CO)CCC1)c1cc(Cl)nc(N)n1 ?
Result: > 100 µM

Query: Would you kindly repeat that for CN(C)CCCNC(CC#N)CCC#N (configuration not stated) ?
Result: > 10 µM

Query: Would you kindly repeat that for O=c1cc(-c2ccccc2)[nH]c2ccccc12 ?
Result: > 100 µM

Query: Would you kindly repeat that for Cc1ccc(N=Nc2c(O)c(C(=O)O)cc3ccccc23)cc1C ?
Result: > 100 µM

Query: Would you kindly repeat that for COc1ccc(/C(=C2/O[C@@H]([C@H]3COC(C)(C)O3)[C@H]3OC(C)(C)O[C@@H]23)c2cc(OC)c(OC)c(OC)c2)cc1O ?
Result: 70.4 µM

Query: Would you kindly repeat that for O=C(/C=C/c1ccccc1)/C=N/N1C(=S)N(c2ccccc2)C(=Nc2ccccc2)C1=Nc1ccccc1 ?
Result: > 100 µM

Query: Would you kindly repeat that for CN1CCC(n2cnc(-c3ccc(F)cc3)c2-c2ccnc(NCCO)n2)CC1 ?
Result: > 25 µM

Query: Would you kindly repeat that for N#Cc1c(N2CCCC2)[nH]c(=O)c(C(c2c(Cl)cccc2Cl)c2c(O)c(C#N)c(N3CCCC3)[nH]c2=O)c1O ?
Result: 35.9 µM

Query: Would you kindly repeat that for COc1ccc(-c2n/c(=C\c3c(O)[nH]c4ccc(OC)cc34)cc3c2=Nc2ccccc2-3)cc1 ?
Result: 56.1 µM
